These entries and their values trace back to patent US20110293610A1.

# Tested target: T1, TNF-beta (human, UniProt P01374 35-205)
# T1 construct: also called TNFβ; Tumour Necrosis Factor-beta
# T1 sequence (looked up): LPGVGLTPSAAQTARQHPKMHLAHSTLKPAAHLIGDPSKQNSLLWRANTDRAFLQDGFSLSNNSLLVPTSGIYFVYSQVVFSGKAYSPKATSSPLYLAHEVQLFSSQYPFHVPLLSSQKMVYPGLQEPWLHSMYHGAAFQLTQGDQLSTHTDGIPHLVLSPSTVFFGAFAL
# Protocol: phage ELISA
Property measured: binding result

I029D07 (scFv) scFv: QVQLQQSGAEVKKPGSSVKVSCKASGYTFTKYTMHWVRQAPGQGPEWMGWINGGSGDTKYSRKFQGRVTITKDTSASAAYMELSSLGSEDTALYYCARATYDPLTGYSFDGFDIWGQGTLVTVSSGGGGSGGGGSGGGGSQSVLTQPASVSGSPGQSITISCTGTSSDVGGYNYVSWYQQHPGKAPKLMIYDVSKRPSGVPDRFSGSKSGNTASLTISGLQAEDEGDYYCSSYAGPSRVFGGGTKVEIKR = no binding
I031F09 (scFv) scFv: QVQLVQSGAEVKKPGASVKVSCTVSGDSFSRHGISWVRQAPGQGLEWMGWISVYNGDTKYAQKVQGRVTMTTDTSTNTVYMELRRLRSDDTAVYYCARDEGRDLLTGYYWPNFFDSWGRGTLVTVSSGGGGSGGGGSGGGGSALSYVLTQPPSASGTPGQRVTISCSGSRPNIGGNTVNWYQQLPGAAPKLLIYSNSQRPSGVPDRFSGSKYGTSASLAISGLQSDDEADYYCAAWDDSLTGPVFGGGTKLTVLG = no binding
